Taken from the supplement of paper PMC8728848.

target_or_test_system: Fuc(a1-2)[GalNAc(a1-3)]Gal(b1-3)GalNAc(a1-3)[Fuc(a1-2)]Gal(b1-4)GlcNAc
assay_protocol: glycan array binding signal (z-score within array); higher = stronger binding
stated_conditions: glycan notation: IUPAC condensed, linker removed
Many of the other results were omitted from the sample, so the strongest signals are more common in it than they were.
quantity: glycan array binding signal (z-score)
Could you keep your reply to the number by itself?

Exam item: Item Flo1 (Saccharomyces cerevisiae), P32768 (protein) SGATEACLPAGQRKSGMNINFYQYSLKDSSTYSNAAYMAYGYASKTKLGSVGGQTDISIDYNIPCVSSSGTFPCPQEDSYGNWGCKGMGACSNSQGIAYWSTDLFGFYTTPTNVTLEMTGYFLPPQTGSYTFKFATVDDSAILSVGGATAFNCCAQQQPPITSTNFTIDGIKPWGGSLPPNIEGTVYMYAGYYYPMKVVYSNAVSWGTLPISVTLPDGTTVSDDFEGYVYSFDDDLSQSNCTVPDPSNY has what recorded glycan array binding signal (z-score)?
Marked response: 0.065
